Data provenance is patent US5087726A.

Molecular target: acyl-CoA:cholesterol acyltransferase (ACAT) (Oryctolagus cuniculus)
Sequence (G1SFD9 1-524): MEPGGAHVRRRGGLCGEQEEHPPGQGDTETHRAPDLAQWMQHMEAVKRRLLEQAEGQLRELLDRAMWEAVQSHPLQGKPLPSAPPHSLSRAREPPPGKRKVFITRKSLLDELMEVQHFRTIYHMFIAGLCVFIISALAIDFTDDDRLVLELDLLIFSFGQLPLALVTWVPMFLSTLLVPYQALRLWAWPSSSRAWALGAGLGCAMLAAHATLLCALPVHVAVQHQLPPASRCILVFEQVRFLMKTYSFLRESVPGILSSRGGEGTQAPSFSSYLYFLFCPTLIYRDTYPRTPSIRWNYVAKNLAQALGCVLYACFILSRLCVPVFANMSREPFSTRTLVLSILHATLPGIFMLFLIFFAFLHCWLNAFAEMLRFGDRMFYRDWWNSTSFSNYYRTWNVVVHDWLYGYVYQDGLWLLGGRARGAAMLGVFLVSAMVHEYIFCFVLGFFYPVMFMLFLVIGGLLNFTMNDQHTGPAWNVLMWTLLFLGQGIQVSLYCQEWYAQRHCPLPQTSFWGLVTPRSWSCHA
Assay metric: IC50 (nM)

[[record]]
molecule = "CCCCCCCCCCCC(=O)N[C@@H](CNC(=O)Oc1c(C(C)C)cccc1C(C)C)c1ccccc1 [Example 1]"
assay_metric = "IC50"
numeric_result = 0.51

